Hey, just so you know, these numbers are from paper PMC7979765.

Assay Method Text: Mitochondrial toxicity assay, glucose vs galactose
Format: cell-based
Condition Parameters: human, HepG2 cells, HepG2; Galactcose; Conc. (μM) 1.00E-04; read-out: Mean % viability
Property Name: viability at 24 h, 100 µM (%)
Number in %, nothing else.

Task item: viability at 24 h, 100 µM for O=C(Nc1nnc(-c2ccc(F)cc2)o1)N1CCc2ccccc2C1 ?
Reply: 64

###

Assay Method Text: Pharmacokinetic analyses in mice (PO suspension, IV, SC)
Type: in vivo, mouse
Condition Parameters: female, CD-1, mouse, in vivo, po, 10 mg/kg, PO (10 mg/kg susp.), 1 hrs, individual animals; read-out: MBX 4132 Concentrations in Mouse Plasma
Property Name: concentration at 1 h (ng/mL)
Number in ng/mL, nothing else.

Task item: concentration at 1 h for O=C(Nc1nnc(-c2ccc(F)cc2)o1)N1CCc2ccccc2C1 ?
Reply: 12100
